Consider the following compounds and their measured inhibition at 10 µM readings.
# Tested on: MALME-3M
# ASSAY_NAME: NCI one-dose assay
# Format: cell-based
# EXPERIMENTAL_PARAMETERS: Homo sapiens, Melanoma, read-out: Cell growth inhibition %

SMILES_REPRESENTATION: Cc1ccc(/C(CSc2nnc(-c3c[nH]c4ccccc34)n2-c2ccccc2)=N/O)cc1
inhibition at 10 µM (%): 83.3
//
SMILES_REPRESENTATION: O/N=C(\CSc1nnc(-c2c[nH]c3ccccc23)n1-c1ccccc1)c1ccc(Cl)cc1
inhibition at 10 µM (%): 88.9
//
SMILES_REPRESENTATION: C=CCn1c(SCC(=O)c2ccccc2)nnc1-c1c[nH]c2ccccc12
inhibition at 10 µM (%): 13.4
//
SMILES_REPRESENTATION: O=C(CSc1nnc(-c2c[nH]c3ccccc23)n1-c1ccccc1)c1ccc(Cl)cc1
inhibition at 10 µM (%): 36

====

Consider the following compounds and their measured inhibition at 10 µM readings.
# System: OVCAR-4
# ASSAY_NAME: NCI one-dose assay
# Format: cell-based
# EXPERIMENTAL_PARAMETERS: Homo sapiens, OVCAR-4, Ovarian cancer, read-out: Cell growth inhibition %
ENDPOINT_NAME: inhibition at 10 µM (%)

SMILES_REPRESENTATION: O/N=C(\CSc1nnc(-c2c[nH]c3ccccc23)n1-c1ccccc1)c1ccccc1
ENDPOINT_NAME: inhibition at 10 µM
RESULT_NUMBER: 62.2

SMILES_REPRESENTATION: C=CCn1c(SC/C(=N\O)c2ccccc2)nnc1-c1c[nH]c2ccccc12
ENDPOINT_NAME: inhibition at 10 µM
RESULT_NUMBER: -8.19

SMILES_REPRESENTATION: O/N=C(\CSc1nnc(-c2c[nH]c3ccccc23)n1-c1ccccc1)c1ccc(Cl)cc1
ENDPOINT_NAME: inhibition at 10 µM
RESULT_NUMBER: 181

SMILES_REPRESENTATION: C=CCn1c(SCC(=O)c2ccccc2)nnc1-c1c[nH]c2ccccc12
ENDPOINT_NAME: inhibition at 10 µM
RESULT_NUMBER: 2.53

====

# Test system: MDA-MB-435
# ASSAY_NAME: NCI one-dose assay
# Assay type: cell-based
# EXPERIMENTAL_PARAMETERS: Homo sapiens, MDA-MB-435, Melanoma, read-out: Cell growth inhibition %
Respond with YES for inhibition at 10 µM values of 10% and above, NO for values below.

SMILES_REPRESENTATION: C=CCn1c(SC/C(=N\O)c2ccc(Br)cc2)nnc1-c1c[nH]c2ccccc12
LABEL: YES
//
SMILES_REPRESENTATION: C=CCn1c(SC/C(=N\O)c2ccc(Cl)cc2)nnc1-c1c[nH]c2ccccc12
LABEL: YES
//
SMILES_REPRESENTATION: O/N=C(\CSc1nnc(-c2c[nH]c3ccccc23)n1-c1ccccc1)c1ccccc1
LABEL: YES
//
SMILES_REPRESENTATION: O/N=C(\CSc1nnc(-c2c[nH]c3ccccc23)n1-c1ccccc1)c1ccc(Cl)cc1
LABEL: YES
//
SMILES_REPRESENTATION: C=CCn1c(SCC(=O)c2ccc(Cl)cc2)nnc1-c1c[nH]c2ccccc12
LABEL: NO
//
SMILES_REPRESENTATION: C=CCn1c(SC/C(=N\O)c2ccccc2)nnc1-c1c[nH]c2ccccc12
LABEL: NO
//
SMILES_REPRESENTATION: C=CCn1c(SC/C(=N\O)c2ccc(C)cc2)nnc1-c1c[nH]c2ccccc12
LABEL: NO
//
SMILES_REPRESENTATION: O=C(CSc1nnc(-c2c[nH]c3ccccc23)n1-c1ccccc1)c1ccc(Cl)cc1
LABEL: YES

====

Consider the following compounds and their measured inhibition at 10 µM readings.
# System: MDA-MB-468
# ASSAY_NAME: NCI one-dose assay
# Assay type: cell-based
# EXPERIMENTAL_PARAMETERS: Homo sapiens, MDA-MB-468, Breast cancer, read-out: Cell growth inhibition %

SMILES_REPRESENTATION: O=C(CSc1nnc(-c2c[nH]c3ccccc23)n1-c1ccccc1)c1ccc(Br)cc1
inhibition at 10 µM / %: 78
--
SMILES_REPRESENTATION: COc1ccc(/C(CSc2nnc(-c3c[nH]c4ccccc34)n2-c2ccccc2)=N/O)cc1
inhibition at 10 µM / %: 99.4
--
SMILES_REPRESENTATION: O=C(CSc1nnc(-c2c[nH]c3ccccc23)n1-c1ccccc1)c1ccccc1
inhibition at 10 µM / %: 22.8
--
SMILES_REPRESENTATION: C=CCn1c(SCC(=O)c2ccc(OC)cc2)nnc1-c1c[nH]c2ccccc12
inhibition at 10 µM / %: 5.01

====

# Tested on: DU-145
# ASSAY_NAME: NCI one-dose assay
# Assay type: cell-based
# EXPERIMENTAL_PARAMETERS: Homo sapiens, DU-145, Prostate cancer, read-out: Cell growth inhibition %

SMILES_REPRESENTATION: C=CCn1c(SCC(=O)c2ccc(Cl)cc2)nnc1-c1c[nH]c2ccccc12
UNIT_NAME: %
inhibition at 10 µM: -14.4
--
SMILES_REPRESENTATION: O/N=C(\CSc1nnc(-c2c[nH]c3ccccc23)n1-c1ccccc1)c1ccc(Cl)cc1
UNIT_NAME: %
inhibition at 10 µM: 131
--
SMILES_REPRESENTATION: C=CCn1c(SCC(=O)c2ccc(Br)cc2)nnc1-c1c[nH]c2ccccc12
UNIT_NAME: %
inhibition at 10 µM: -6.19
--
SMILES_REPRESENTATION: C=CCn1c(SC/C(=N\O)c2ccc(Cl)cc2)nnc1-c1c[nH]c2ccccc12
UNIT_NAME: %
inhibition at 10 µM: 5.88
--
SMILES_REPRESENTATION: C=CCn1c(SC/C(=N\O)c2ccc(Br)cc2)nnc1-c1c[nH]c2ccccc12
UNIT_NAME: %
inhibition at 10 µM: 6.21
--
SMILES_REPRESENTATION: C=CCn1c(SC/C(=N\O)c2ccccc2)nnc1-c1c[nH]c2ccccc12
UNIT_NAME: %
inhibition at 10 µM: -5.82
--
SMILES_REPRESENTATION: Cc1ccc(/C(CSc2nnc(-c3c[nH]c4ccccc34)n2-c2ccccc2)=N/O)cc1
UNIT_NAME: %
inhibition at 10 µM: 160
--
SMILES_REPRESENTATION: C=CCn1c(SCC(=O)c2ccc(C)cc2)nnc1-c1c[nH]c2ccccc12
UNIT_NAME: %
inhibition at 10 µM: -8.9
--
SMILES_REPRESENTATION: C=CCn1c(SCC(=O)c2ccccc2)nnc1-c1c[nH]c2ccccc12
UNIT_NAME: %
inhibition at 10 µM: -9.05
--
SMILES_REPRESENTATION: O=C(CSc1nnc(-c2c[nH]c3ccccc23)n1-c1ccccc1)c1ccc(Cl)cc1
UNIT_NAME: %
inhibition at 10 µM: 11.6
--
SMILES_REPRESENTATION: COc1ccc(C(=O)CSc2nnc(-c3c[nH]c4ccccc34)n2-c2ccccc2)cc1
UNIT_NAME: %
inhibition at 10 µM: 31.1
--
SMILES_REPRESENTATION: O/N=C(\CSc1nnc(-c2c[nH]c3ccccc23)n1-c1ccccc1)c1ccccc1
UNIT_NAME: %
inhibition at 10 µM: 40.2

====

# System: HS 578 T
# ASSAY_NAME: NCI one-dose assay
# Type: cell-based
# EXPERIMENTAL_PARAMETERS: Homo sapiens, Breast cancer, read-out: Cell growth inhibition %
ENDPOINT_NAME: inhibition at 10 µM (%)

SMILES_REPRESENTATION: COc1ccc(C(=O)CSc2nnc(-c3c[nH]c4ccccc34)n2-c2ccccc2)cc1
RESULT_NUMBER: 84.5
//
SMILES_REPRESENTATION: C=CCn1c(SCC(=O)c2ccc(OC)cc2)nnc1-c1c[nH]c2ccccc12
RESULT_NUMBER: 0.85
//
SMILES_REPRESENTATION: C=CCn1c(SCC(=O)c2ccc(Cl)cc2)nnc1-c1c[nH]c2ccccc12
RESULT_NUMBER: -3.65

====

# TESTED_SYSTEM: tubulin (Sus scrofa, UniProt P02550+P02554)
# Construct: purchased Cytoskeleton Inc., Denver, CO, USA
# Sequence (P02554 whole entry): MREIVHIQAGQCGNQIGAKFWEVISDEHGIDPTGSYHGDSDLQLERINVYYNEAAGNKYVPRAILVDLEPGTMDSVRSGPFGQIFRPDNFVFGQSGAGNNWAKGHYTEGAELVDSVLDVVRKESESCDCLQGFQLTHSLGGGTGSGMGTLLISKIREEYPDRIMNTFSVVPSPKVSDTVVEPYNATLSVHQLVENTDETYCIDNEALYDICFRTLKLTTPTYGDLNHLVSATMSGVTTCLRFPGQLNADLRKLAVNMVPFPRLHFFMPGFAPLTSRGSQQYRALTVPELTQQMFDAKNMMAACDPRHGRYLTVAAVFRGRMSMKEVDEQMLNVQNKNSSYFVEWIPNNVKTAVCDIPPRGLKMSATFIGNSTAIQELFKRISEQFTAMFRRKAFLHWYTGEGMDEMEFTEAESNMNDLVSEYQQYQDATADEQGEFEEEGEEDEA
# Sequence (P02550 whole entry): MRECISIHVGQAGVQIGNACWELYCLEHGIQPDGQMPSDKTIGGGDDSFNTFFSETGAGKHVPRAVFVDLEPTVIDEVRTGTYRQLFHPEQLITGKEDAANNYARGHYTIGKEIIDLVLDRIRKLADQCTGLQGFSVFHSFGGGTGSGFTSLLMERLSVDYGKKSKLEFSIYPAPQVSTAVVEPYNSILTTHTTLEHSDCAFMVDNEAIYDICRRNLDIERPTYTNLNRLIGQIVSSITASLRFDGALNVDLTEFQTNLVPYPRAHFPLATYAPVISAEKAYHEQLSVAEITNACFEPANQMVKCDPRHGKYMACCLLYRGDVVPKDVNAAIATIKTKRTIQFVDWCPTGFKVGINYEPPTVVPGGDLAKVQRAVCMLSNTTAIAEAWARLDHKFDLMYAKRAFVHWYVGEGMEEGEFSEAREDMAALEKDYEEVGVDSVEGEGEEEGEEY
# ASSAY_NAME: Tubulin polymerization inhibitory assay
# Assay type: biochemical
# EXPERIMENTAL_PARAMETERS: conc 10 (unit not given; IC50 from this curve in µg/ml)
Consider the following compounds and their measured %inhibition readings.

COMPOUND: COc1ccc(/C=C\c2cc(OC)c(OC)c(OC)c2)cc1O [CA-4, combretastatin A-4, reference compound]
TESTED_SYSTEM: tubulin (Sus scrofa, UniProt P02550+P02554)
UNIT_NAME: %
%inhibition: 59
--
COMPOUND: O/N=C(\CSc1nnc(-c2c[nH]c3ccccc23)n1-c1ccccc1)c1ccc(Br)cc1
TESTED_SYSTEM: tubulin (Sus scrofa, UniProt P02550+P02554)
UNIT_NAME: %
%inhibition: 68.5
--
COMPOUND: O/N=C(\CSc1nnc(-c2c[nH]c3ccccc23)n1-c1ccccc1)c1ccc(Cl)cc1
TESTED_SYSTEM: tubulin (Sus scrofa, UniProt P02550+P02554)
UNIT_NAME: %
%inhibition: 58.9
--
COMPOUND: Cc1ccc(/C(CSc2nnc(-c3c[nH]c4ccccc34)n2-c2ccccc2)=N/O)cc1
TESTED_SYSTEM: tubulin (Sus scrofa, UniProt P02550+P02554)
UNIT_NAME: %
%inhibition: 49.9
--
COMPOUND: Cc1ccc(C(=O)CSc2nnc(-c3c[nH]c4ccccc34)n2-c2ccccc2)cc1
TESTED_SYSTEM: tubulin (Sus scrofa, UniProt P02550+P02554)
UNIT_NAME: %
%inhibition: 58

Sourced from paper PMC11859928
